System: HEK-293T
Assay: Incucyte cell viability with HEK293T; also: filed as whole numbers so only -1 and 0 and 1 occur
Assay type: toxicity, cell-based
Conditions: human, 12 h, 10 µM, compound concentration 10 uM, replicate number 2, timepoint 12 hours
Please provide measured Growth Rate for the entries that follow.
// response body must contain only the number

Value wanted: Growth Rate (HEK-293T) of entry COc1cccc(-c2c(C)n(Cc3c(F)cccc3C(F)(F)F)c(=O)n(C[C@H](NCCCC(=O)[O-])c3ccccc3)c2=O)c1F.[Na+] [ELAGOLIX SODIUM]
0

Recorded Growth Rate for `CC(/C=C1\SC(=S)N(CCCC(=O)Nc2ccc(C(=O)O)c(O)c2)C1=O)=C\c1ccccc1` with HEK-293T, please?
1

Form field - read-out: Growth Rate; system: HEK-293T; submitted item: `COc1ccc(Br)cc1S(=O)(=O)NC(=O)/C=C/c1ccccc1Cc1ccc2ccccc2c1`
1

// map `CCOc1ccn(-c2ccc(F)cc2)c(=O)c1C(=O)Nc1ccc(Oc2ccnc(N)c2Cl)c(F)c1` to recorded Growth Rate (system: HEK-293T)
1

Form entry - test system: HEK-293T; read-out: Growth Rate; compound: `NS(=O)(=O)c1cc(NC(=O)Cc2ccccc2)ccc1Oc1cccc(Cl)c1`
1

// lookup Growth Rate | system=HEK-293T | key= Cc1ccc2[nH]c(CNCCCc3ccncc3)cc(=O)c2c1 [UCSF924NC]
1

State its Growth Rate on HEK-293T: `Cn1cc(Cl)c2c(Oc3c(F)cc(Nc4cc(Cl)nc(N)n4)cc3F)ccnc21`
0

What reported Growth Rate corresponds to `COc1ccc(CCc2nc3cc(-c4c(C)noc4C)ccc3n2C[C@H](C)N2CCOCC2)cc1Cl` on HEK-293T?
0

Given the entry `CCc1cc(Nc2nccc(-c3c(-c4ccc(OC)c(C(=O)Nc5c(F)cccc5F)c4)nc4ccccn34)n2)c(OC)cc1N1CCC(N2CCN(S(C)(=O)=O)CC2)CC1` , what Growth Rate was observed with HEK-293T?
1

Form field: Growth Rate recorded for `CCOC(=O)c1ncn2c1CN(C)C(=O)c1cc(F)ccc1-2` with HEK-293T (enter value)
0

Field: Growth Rate (HEK-293T). Entry: `CCCCC#Cc1nc(NC)c2ncn([C@@H]3O[C@H](CO)[C@@H](O)[C@H]3O)c2n1`
1

Hello, I am looking for reported Growth Rate with HEK-293T for CC(C)(Cc1ccccc1)NCC(O)c1ccc(O)c(NS(C)(=O)=O)c1.Cl (configuration not stated) [ZINTEROL HYDROCHLORIDE] . Could you help?
0

Lab note: need Growth Rate with HEK-293T for entry `Cc1c(Nc2ccc(S(=O)(=O)N3CCN(C)CC3)cc2F)nc2ccc(-c3cnn(C4CC4)c3)cn2c1=O` , please look it up.
1

Test system HEK-293T; read-out Growth Rate; what value for `CC(C)C[C@H](NC(=O)N1CCCCCC1)C(=O)N[C@H](Cc1cn(C)c2ccccc12)C(=O)N[C@H](Cc1ccccn1)C(=O)O` ?
1

Look up Growth Rate with HEK-293T for this compound: `CCCCN(Cc1ccccc1)C(=O)c1ccc(S(=O)(=O)Nc2ccccc2)cc1`
1

// lookup Growth Rate | system=HEK-293T | key= `C[C@H]1C[C@H]2[C@@H]3CCC4=CC(=O)C=C[C@]4(C)[C@@]3(Cl)[C@@H](O)C[C@]2(C)[C@@]1(O)C(=O)CO`
0

Checklist item: Growth Rate tested on HEK-293T, entry `C[C@@H](N)Cc1c[nH]cn1.Cl.Cl` , value?
0
